System: Dd2
Assay: qHTS profiling for inhibitors of Plasmodium falciparum proliferation (AID 504749); also: nearly all actives have a fitted effect of over 60% in size
Conditions: P. falciparum in erythrocytes, SYBR Green DNA, 72 h; series mostly up to 28.7 µM
Procedure: NIH National Institute of Allergy and Infectious Diseases [NIAID] NIH Chemical Genomics Center [NCGC] […] Because mature erythrocytes lack DNA, only Plasmodium-derived DNA is detected. NCGC Assay Protocol Summary: The SYBR Green viability assay was adapted from a method described previously (Plouffe et al., 2008). […] The following morning, fluorescence intensity at 485(14) nm excitation and 535(25) nm emission wavelengths was measured on an EnVision (Perkin Elmer) plate reader. […]
Results filed as inconclusive are left out. Calls of active or inactive are those of the source. Calls follow the shape of the dose curve; as a rule, active = well fitted inhibition curve with a large enough effect; inconclusive = small, poorly fitted or top-dose-only effect; inactive = flat fitted curve, though single readings scatter.
// allowed return values: true (1) = active, false (0) = inactive

Q: Recorded test call requested for CC[N+](C)(CC)CCOC(=O)C1c2ccccc2Oc2ccccc21
Result: false (0)

Q: Recorded test call requested for C[C@H]1COc2c(C3(N)CC3)c(F)cc3c(=O)c(C(=O)O)cn1c23
Result: false (0)

Q: Recorded test call requested for CCCCOC(=O)c1ccc(N)cc1
Result: false (0)

Q: Recorded test call requested for CC(O)CCCCn1c(=O)c2c(ncn2C)n(C)c1=O (stereo unspecified)
Result: false (0)

Q: Recorded test call requested for NC(N)=NS(=O)(=O)c1ccc(N)cc1
Result: false (0)

Q: Recorded test call requested for COc1ccccc1Oc1c(NS(=O)(=O)c2ccc(C(C)(C)C)cc2)nc(-c2ncccn2)nc1OCCO
Result: false (0)

Q: Recorded test call requested for CC(=O)NCc1c(I)c(NC(C)=O)c(I)c(C(=O)O)c1I
Result: false (0)

Q: Recorded test call requested for COc1ccc(C(=O)N2CCN(CC(=O)N3CCOCC3)CC2)cc1
Result: false (0)

Q: Recorded test call requested for CCN1CC(CCN2CCOCC2)C(c2ccccc2)(c2ccccc2)C1=O (stereo unspecified)
Result: true (1)

Q: Recorded test call requested for CC(=O)NS(=O)(=O)c1ccc(N)cc1
Result: false (0)

Q: Recorded test call requested for CC1CCc2cc(F)cc3c(=O)c(C(=O)O)cn1c23 (stereo unspecified)
Result: false (0)

Q: Recorded test call requested for Nc1ncnc2c1ncn2[C@@H]1O[C@H](COP(=O)(O)O)[C@@H](O)[C@H]1O
Result: false (0)

Q: Recorded test call requested for CC1CC(OC(=O)c2ccccc2O)CC(C)(C)C1 (stereo unspecified)
Result: false (0)

Q: Recorded test call requested for COC(=O)c1ccc(O)cc1
Result: false (0)

Q: Recorded test call requested for CC(N)CCCC(C)(C)O (stereo unspecified)
Result: false (0)

Q: Recorded test call requested for CC(C)CCCC(C)CCCC(C)CCCCC(C)CCCC(C)CCCC(C)C (stereo unspecified)
Result: false (0)

Q: Recorded test call requested for Cc1cc(-n2nc3ccc(Cl)cc3n2)c(O)c(C(C)(C)C)c1
Result: false (0)

Q: Recorded test call requested for O=C(Cn1ccnc1[N+](=O)[O-])NCCO
Result: false (0)

Q: Recorded test call requested for CN1C(C)(C)CCCC1(C)C
Result: false (0)

Q: Recorded test call requested for COc1cc(O)cc(O)c1
Result: false (0)

Q: Recorded test call requested for COc1ccccc1OC(=O)Oc1ccccc1OC
Result: false (0)

Q: Recorded test call requested for Cc1ccsc1C(=CCCN1CCC[C@@H](C(=O)O)C1)c1sccc1C
Result: false (0)

Q: Recorded test call requested for CCCCCCCCCCC(CO)CCCCCCCC (stereo unspecified)
Result: false (0)

Q: Recorded test call requested for O=C(O)Cc1ccc(CCNS(=O)(=O)c2ccc(Cl)cc2)cc1
Result: false (0)

Q: Recorded test call requested for O=C(O)c1ccccc1C(=O)Nc1ccc(S(=O)(=O)Nc2nccs2)cc1
Result: false (0)

Q: Recorded test call requested for O=C(O)CCC(=O)O
Result: false (0)
